Assay: viability loss with induced miR-34 in A549 – imaging, A549 dox-inducible miR-34, nuclei and caspase counts, primary screen (AID 1347080)
Conditions used: A549 miR-34 inducible, Hoechst nuclei count, 48 h; measured here: relative caspase fold change +Dox/-Dox
Assay metric: fold change
// return a plain number; no unit text

Qu. Entry "CNC(=O)c1cc(Oc2ccc(NC(=O)Nc3cc(C(C)(C)C)nn3-c3ccc4ncccc4c3)c(F)c2)ccn1" : reported fold change = ?
Ans. 0.469

Qu. Entry "C#CCCCCCCCCCNC(=O)Oc1cccc(-c2cccc(C(N)=O)c2)c1" : reported fold change = ?
Ans. 1.13

Qu. Entry "CCC(CC)CC1(C(=O)Nc2ccccc2SC(=O)C(C)C)CCCCC1" : reported fold change = ?
Ans. 0.858

Qu. Entry "CCCCC[C@H](O)/C=C/[C@@H]1[C@@H](C/C=C/CCCC(=O)O)[C@H](O)C[C@H]1O" : reported fold change = ?
Ans. 1.55

Qu. Entry CC/C(=C\C(=N/O)C(N)=O)C(C)[N+](=O)[O-] (stereo not given) : reported fold change = ?
Ans. 1.1

====

Assay: viability loss with induced miR-34 in A549 – imaging, A549 dox-inducible miR-34, nuclei and caspase counts, primary screen (AID 1347080)
Conditions used: A549 miR-34 inducible, Hoechst nuclei count, 48 h; measured here: relative caspase fold change +Dox/-Dox
Assay metric: fold change

>>> result("O=Cc1cccc2[nH]ccc12")
0.821
>>> result("Cc1nn(-c2ccccc2)c(C)c1/C=N/N1CCN(Cc2ccccc2)CC1")
0.466
>>> result("C[C@@H]1CC2C3CCC4=CC(=O)C=CC4(C)C3(F)[C@@H](O)CC2(C)C1(O)C(=O)CO (some centres undefined)")
0.753
>>> result("CN1c2cc3c(cc2N=C(c2ccc(C(=O)O)cc2)c2ccccc21)C(C)(C)CCC3(C)C")
2
>>> result("Cc1cc2nc3c(=O)[nH]c(=O)nc-3n(C)c2cc1C=O")
1.31
>>> result("COc1ccc(/C=C/C(=O)CC(=O)/C=C/c2cccc(O)c2OC)cc1O")
1.39
>>> result("C=CCNC1=C2C[C@@H](C)C[C@H](OC)[C@H](O)[C@@H](C)/C=C(\\C)[C@H](OC(N)=O)[C@@H](OC)/C=C\\C=C(/C)C(=O)NC(=CC1=O)C2=O")
1.33
>>> result("O=C(O)C1(Cc2cccc(Nc3nccs3)n2)CCC(Oc2cccc(Cl)c2F)CC1 (centres undefined)")
0.491

Qu. Entry "Nc1c(S(=O)(=O)O)cc(Nc2cccc3ccccc23)c2c1C(=O)c1ccccc1C2=O" : reported fold change = ?
Ans. 1.43

====

Assay: viability loss with induced miR-34 in A549 – imaging, A549 dox-inducible miR-34, nuclei and caspase counts, primary screen (AID 1347080)
Conditions used: A549 miR-34 inducible, Hoechst nuclei count, 48 h; measured here: total cells without miR-34 induction
Where a SMILES comes first, the peptide text is derived from it. [ ]: non-standard residue; d: D form.
Criterion: cell count meeting or surpassing 7000. Met: 1 (yes). Not met: 0 (no).

Consider the following illustrative entries.
>>> group("Nc1nc2c(nc(Br)n2[C@@H]2O[C@@H]3COP(=O)(O)O[C@H]3[C@H]2O)c(=O)[nH]1")
"1 (yes)"
>>> group("CC(=O)NCC(=O)N[C@H](CCC(=O)O)C(=O)O (Ac-Gly-[dE]-OH)")
"1 (yes)"
>>> group("CN(Cc1ccccc1)C(=O)[C@H](Cc1ccc2ccccc2c1)NC(=O)[C@@H]1C[C@@H](O)CN1C(=O)c1cn(C)c2ccccc12")
"0 (no)"
>>> group("CCCCCCCCCCCCCCCCOC[C@H](COP(=O)([O-])OCC[N+](C)(C)C)SC(C)=O")
"0 (no)"
>>> group("CCC(=O)Nc1cccc(Oc2nc(Nc3ccc(N4CCN(C)CC4)cc3OC)ncc2Cl)c1")
"0 (no)"

Qu. Please check the record O=C1CC2(CCCC2)CC(=O)N1CCCCNCC1COc2ccccc2O1 (centres undefined) and state if its cell count is at or above 7000.
Ans. 1 (yes)

Qu. Please check the record "O=C(O)CCC/C=C\C[C@@H]1[C@@H](CCC(=O)CCc2ccccc2)[C@H](O)C[C@@H]1O" and state if its cell count is at or above 7000.
Ans. 0 (no)

Qu. Please check the record "Nc1ccc(C(=O)Nc2cccc(-c3nc(N4CCOCC4)c4oc5ncccc5c4n3)c2)cn1" and state if its cell count is at or above 7000.
Ans. 0 (no)

Qu. Please check the record N=C(CC(O)COc1ccccc1-c1ccccc1)N1CCCCC1 (centres undefined) and state if its cell count is at or above 7000.
Ans. 0 (no)

Qu. Please check the record "COC(=O)CCC[C@H](O)[C@H](O)CO" and state if its cell count is at or above 7000.
Ans. 0 (no)

Qu. Please check the record "O=C(O)CCC/C=C\C[C@@H]1[C@@H](/C=C/[C@@H](O)CCc2cccc(C(F)(F)F)c2)[C@H](O)C[C@@H]1O" and state if its cell count is at or above 7000.
Ans. 0 (no)

====

Assay: viability loss in pontine glioma line – cell-based, SU-DIPG-XXV, MIPE5.0, CellTiter-Glo, qHTS, dose response (AID 1347065);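 note: cells exposed to compound for 48 hours before ATP readout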
Conditions used: CellTiter-Glo ATP luminescence
Records with an inconclusive call do not appear. Activity calls are given as the source filed them. Cut-off not given; nearly all actives show AC50 up to about 26 µM.
Assay metric: AC50

>>> result("C[C@@H]1COC(Nc2ccc3ncnc(Nc4ccc(OCc5nccs5)c(Cl)c4)c3c2)=N1")
"20.9 µM (active)"
>>> result("Cc1cnc(-c2cnc(NCCNc3ccc(C#N)cn3)nc2-c2ccc(Cl)cc2Cl)[nH]1")
"inactive"
>>> result("Cn1ncc(Cl)c1-c1cc(C(=O)N[C@H](CN)Cc2cccc(F)c2)sc1Cl")
"3.72 µM (active)"
>>> result("CCC(=C/[C@H](C)C/C=C/C(C)=C/[C@@H](C)C(=O)[C@@H](C)[C@H](O)[C@@H](C)C/C(C)=C/C(=O)O)/C=C/[C@@H]1OC(=O)C=C[C@@H]1C")
"0.00209 µM (active)"
>>> result("CCOC(=O)c1c(CSc2ccccc2)n(C)c2cc(Br)c(O)c(CN(C)C)c12")
"20.9 µM (active)"
>>> result("CCCCCNC(=O)N1CCC(CN(Cc2ccc(Cl)cc2)Cc2ccc([N+](=O)[O-])s2)C1 (centres undefined)")
"29.5 µM (active)"
>>> result("Nc1nc(OC(c2ccc(-c3cccc(F)c3)cc2)C(F)(F)F)cc(-c2ccc(C[C@@H](N)C(=O)O)cc2)n1 (some centres undefined)")
"23.5 µM (active)"
>>> result("Cc1ccc(Nc2ncc3c(n2)N(C)C(=O)N(c2cc(NC(=O)c4cccc(C(F)(F)F)c4)ccc2C)C3)cn1")
"0.0118 µM (active)"
>>> result("CN(C)CCNC(=O)NC[C@H]1CC[C@@H]2[C@H](O1)c1cc(C(F)(F)F)ccc1N[C@H]2c1ccccc1")
"0.186 µM (active)"
>>> result("COc1cc2c(Oc3ccc4[nH]c(C)cc4c3F)ncnc2cc1OCCCN1CCCC1")
"2.09 µM (active)"

Continue with the next molecule.
Qu. Entry Cn1cncc1C(N)(c1ccc(Cl)cc1)c1ccc2c(c1)c(-c1cccc(Cl)c1)cc(=O)n2C (centres undefined) : reported AC50 = ?
Ans. 8.33 µM (active)

====

Assay: galactose survival enhancers in mitochondrial complex I cybrids – cell-based, galactose medium, ATP luminescence, primary screen (AID 1645843);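 note: positive z means more ATP and so rescue of galactose-driven cybrid death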
Conditions used: complex I mutant cybrid cells, 72 h, stronger effect = higher value
Assay metric: z-score
// return a plain number; no unit text

>>> readout_number("C1CCC(N=C(NC23CC4CC(CC(C4)C2)C3)N2CCOCC2)CC1")
-0.33
>>> readout_number("Oc1ccc(-c2nc3cc(O)cc(Br)c3o2)cc1")
0.775
>>> readout_number("CS/C(N)=C(C#N)/C(C#N)=C(\\N)SC")
-0.595
>>> readout_number("O=C(c1ccc(OCCCc2cnc[nH]2)cc1)C1CC1")
-1.01
>>> readout_number("O=C(/C=C/c1ccccc1)NC(NC(=S)Nc1cccc2cccnc12)C(Cl)(Cl)Cl (stereo unspecified)")
-0.47
>>> readout_number("CCCCCN=c1ccn(Cc2ccccc2)c2ccccc12")
-0.705

Qu. Entry "COc1ccc(Nc2ncnc3ccc(OC)cc23)cc1" : reported z-score = ?
Ans. -0.345

Qu. Entry "COc1ccc(S(=O)(=O)N2c3ccc(Cl)cc3[C@](O)(c3ccccc3Cl)[C@@H]2C(=O)N2CCC[C@H]2C(N)=O)cc1OC" : reported z-score = ?
Ans. 0.855

Qu. Entry "CO[C@H]1/C=C/O[C@@]2(C)Oc3c(C)c(O)c4c(O)c(c(/C=N/N5CCN(C)CC5)c(O)c4c3C2=O)NC(=O)/C(C)=C\C=C\[C@H](C)[C@H](O)[C@@H](C)[C@@H](O)[C@@H](C)[C@H](OC(C)=O)[C@@H]1C" : reported z-score = ?
Ans. 1.12

Qu. Entry "O=C(CCCCCN1C(=O)c2cccc3cccc(c23)C1=O)NO" : reported z-score = ?
Ans. -0.53

Qu. Entry CC(=O)Oc1cc2c(s1)CCN(C(C(=O)C1CC1)c1ccccc1F)C2 (stereo unspecified) : reported z-score = ?
Ans. -1.04

Cited source for all entries: PubChem BioAssay
